tested on: HCV replicon 1A; test: Cell-based HCV replicon assay (Replicon Assay A), replicon 1A; set-up: species or system Hepatitis C virus; conditions: Hepatitis C virus, 72 h, replicon RNA by real time PCR, day 3
Would you kindly list EC50 for each of these compounds?
Please reply with the bare figure in pM and do not write the unit itself.

Need EC50 of COC(=O)N[C@H](C(=O)N1CCC[C@H]1c1ncc(-c2cc(F)c3c(c2)OC(c2ccc4c(c2)OCCC42CC2)n2c-3cc3cc(-c4cnc([C@@H]5CCCN5C(=O)[C@@H](NC(=O)OC)C(C)C)[nH]4)ccc32)[nH]1)C(C)C (single isomer, unassigned) , thanks. 1.2

And for COC(=O)NC(C(=O)N1CCC[C@H]1c1ncc(-c2ccc3c(c2)cc2n3C(c3ccc4c(c3)OCCC4)Oc3cc(-c4cnc([C@@H]5CCCN5C(=O)[C@@H](NC(=O)OC)C(C)C)[nH]4)cc(F)c3-2)[nH]1)C1CCO[C@H](C)C1 (single isomer, unassigned) ? 1.7

And for CCN(CC)[C@@H](C(=O)N1[C@@H]2C[C@@H]2C[C@H]1c1ncc(-c2ccc3c(c2)cc2n3C(c3ccc4c(c3)OCCC4)Oc3cc(-c4cnc([C@@H]5CCCN5C(=O)[C@@H](NC(=O)OC)C5CCOCC5)[nH]4)cc(F)c3-2)[nH]1)c1ccccc1 (single isomer, unassigned) ? 4.9

And for COC(=O)N[C@H](C(=O)N1CCC[C@H]1c1ncc(-c2ccc3c(c2)cc2n3C(c3ccc4c(c3)OCCC4)Oc3cc(-c4cnc([C@@H]5CCCN5C(=O)[C@@H](NC(=O)OC)C5CCOCC5)[nH]4)cc(F)c3-2)[nH]1)C(C)C (single isomer, unassigned) ? 1.8

And for COC(=O)N[C@H](C(=O)N1CCC[C@H]1c1ncc(-c2cc(F)c3c(c2)OC(c2ccc4c(c2)OCC4)n2c-3cc3cc(-c4cnc([C@@H]5C[C@H]6C[C@H]6N5C(=O)[C@@H](NC(=O)OC)C(C)C)[nH]4)ccc32)[nH]1)C(C)C (single isomer, unassigned) ? 1.9

And for COC(=O)NC(C(=O)N1CCC[C@H]1c1ncc(-c2ccc3c(c2)cc2n3C(c3ccc4c(c3)CCCO4)Oc3cc(-c4cnc([C@@H]5CCCN5C(=O)[C@@H](NC(=O)OC)C(C)C)[nH]4)cc(C)c3-2)[nH]1)C1C[C@@H](C)O[C@@H](C)C1 (single isomer, unassigned) ? 3.9

And for COC(=O)NC(C(=O)N1[C@@H]2C[C@@H]2C[C@H]1c1ncc(-c2ccc3c(c2)cc2n3C(c3ccc4c(c3)OCCC4)Oc3cc(-c4cnc([C@@H]5CCCN5C(=O)[C@@H](NC(=O)OC)C(C)C)[nH]4)cc(F)c3-2)[nH]1)C1CCO[C@H](C)C1 (single isomer, unassigned) ? 2

====

Would you kindly list pEC50 for each of these molecules?
tested on: HCV replicon 1A; experiment: Cell-based HCV replicon assay (Replicon Assay A), replicon 1A; design: species or system Hepatitis C virus; conditions: Hepatitis C virus, 72 h, replicon RNA by real time PCR, day 3
To interpret pEC50, take it as minus log10 of a concentration measured in moles per litre.

Need pEC50 of COC(=O)NC(C(=O)N1CCC[C@H]1c1ncc(-c2ccc3c(c2)cc2n3C(c3ccc4c(c3)CCC(C)O4)Oc3cc(-c4cnc([C@@H]5CCCN5C(=O)[C@@H](NC(=O)OC)C(C)C)[nH]4)cc(F)c3-2)[nH]1)C1C[C@@H](C)O[C@@H](C)C1 (single isomer, unassigned) , thanks. 11.72

And for COC(=O)N[C@H](C(=O)N1CCC[C@H]1c1ncc(-c2ccc3c(c2)OC(c2ccc4c(c2)CCCO4)n2c-3cc3cc(-c4cnc([C@@H]5C[C@H]6C[C@H]6N5C(=O)[C@@H](NC(=O)OC)C(C)C)[nH]4)ccc32)[nH]1)C(C)C (single isomer, unassigned) ? 11.72

And for COC(=O)NC(C(=O)N1[C@@H]2C[C@@H]2C[C@H]1c1ncc(-c2ccc3c(c2)cc2n3C(c3ccc4c(c3)OCCC4)Oc3cc(-c4cnc([C@@H]5CCCN5C(=O)[C@@H](NC(=O)OC)C(C)C)[nH]4)cc(F)c3-2)[nH]1)C1CCOC(C)(C)C1 (single isomer, unassigned) ? 11.49

And for COC(=O)NC(C(=O)N1CCC[C@H]1c1ncc(-c2ccc3c(c2)cc2n3C(c3ccc4c(c3)OCCC4)Oc3cc(-c4cnc([C@@H]5CCCN5C(=O)[C@@H](NC(=O)OC)C(C)C)[nH]4)cc(F)c3-2)[nH]1)C1C[C@@H](C)O[C@H](C)C1 (single isomer, unassigned) ? 11.82

And for COC(=O)NC(C(=O)N1CCC[C@H]1c1ncc(-c2ccc3c(c2)cc2n3C(c3ccc4c(c3)OC(C)CC4)Oc3cc(-c4cnc([C@@H]5CCCN5C(=O)[C@@H](NC(=O)OC)C(C)C)[nH]4)cc(F)c3-2)[nH]1)C1CCOC(C)(C)C1 (single isomer, unassigned) ? 11.64

====

test system: HCV replicon 1A; assay: Cell-based HCV replicon assay (Replicon Assay A), replicon 1A; set-up: species or system Hepatitis C virus; settings: replicon RNA by real time PCR, day 3
propertyMeasured: pEC50
To interpret pEC50, take it as minus log10 of a concentration measured in moles per litre.

Need pEC50 of COC(=O)N[C@H](C(=O)N1CCC[C@H]1c1ncc(-c2cc(F)c3c(c2)OC(c2ccc4c(c2)CCC(C)(C)O4)n2c-3cc3cc(-c4cnc([C@@H]5CCCN5C(=O)[C@@H](NC(=O)OC)C(C)C)[nH]4)ccc32)[nH]1)C(C)C (single isomer, unassigned) , thanks. 11.57

And for COC(=O)NC(C(=O)N1CCC[C@H]1c1ncc(-c2ccc3c(c2)cc2n3C(c3ccc4c(c3)OCCC4)Oc3cc(-c4cnc([C@@H]5CCCN5C(=O)[C@@H](NC(=O)OC)C(C)C)[nH]4)cc(F)c3-2)[nH]1)C1C[C@@H](C)O[C@@H](C)C1 (single isomer, unassigned) ? 11.60

And for COC(=O)NC(C(=O)N1CCC[C@H]1c1ncc(-c2ccc3c(c2)cc2n3C(c3ccc4c(c3)OCCC4)Oc3cc(-c4cnc([C@@H]5CCCN5C(=O)[C@@H](NC(=O)OC)C(C)C)[nH]4)cc(F)c3-2)[nH]1)C1C[C@@H](C)O[C@H](C)C1 (single isomer, unassigned) ? 11.66

And for COC(=O)N[C@H](C(=O)N1CCC[C@H]1c1ncc(-c2cc(F)c3c(c2)OC(c2ccc4c(c2)OCCC42CC2)n2c-3cc3cc(-c4cnc([C@@H]5CCCN5C(=O)[C@@H](NC(=O)OC)C(C)C)[nH]4)ccc32)[nH]1)C(C)C (single isomer, unassigned) ? 11.70

And for COC(=O)N[C@H](C(=O)N1CCC[C@H]1c1ncc(-c2cc(F)c3c(c2)OC(c2ccc4c(c2)OCCC4)n2c-3cc3cc(-c4cnc([C@@H]5CCCN5C(=O)[C@@H](NC(=O)OC)C5CCOCC5)[nH]4)ccc32)[nH]1)C(C)C (single isomer, unassigned) ? 11.59

And for COC(=O)NC(C(=O)N1CCC[C@H]1c1ncc(-c2ccc3c(c2)cc2n3C(c3ccc4c(c3)OC(C)CC4)Oc3cc(-c4cnc([C@@H]5CCCN5C(=O)[C@@H](NC(=O)OC)C(C)C)[nH]4)cc(F)c3-2)[nH]1)C1CCOC(C)(C)C1 (single isomer, unassigned) [Compound 64] ? 11.57

And for COC(=O)NC(C(=O)N1[C@@H]2C[C@@H]2C[C@H]1c1ncc(-c2ccc3c(c2)cc2n3C(c3ccc4c(c3)OCCC4)Oc3cc(-c4cnc([C@@H]5CCCN5C(=O)[C@@H](NC(=O)OC)C(C)C)[nH]4)cc(F)c3-2)[nH]1)C1C[C@@H](C)O[C@@H](C)C1 (single isomer, unassigned) ? 11.74

And for CCO[C@H](C)[C@H](NC(=O)OC)C(=O)N1CCC[C@H]1c1ncc(-c2cc(F)c3c(c2)OC(c2ccc4c(c2)OCCC4)n2c-3cc3cc(-c4cnc([C@@H]5CCCN5C(=O)[C@@H](NC(=O)OC)C(C)C)[nH]4)ccc32)[nH]1 (single isomer, unassigned) ? 11.68

And for COC(=O)NC(C(=O)N1[C@@H]2C[C@@H]2C[C@H]1c1ncc(-c2ccc3c(c2)cc2n3C(c3ccc4c(c3)OCCC4)Oc3cc(-c4cnc([C@@H]5CCCN5C(=O)[C@@H](NC(=O)OC)C(C)C)[nH]4)cc(F)c3-2)[nH]1)C1CCOC(C)(C)C1 (single isomer, unassigned) ? 11.55

And for COC(=O)NC(C(=O)N1CCC[C@H]1c1ncc(-c2cc(F)c3c(c2)OC(c2ccc4c(c2)OCCC4)n2c-3cc3cc(-c4cnc([C@@H]5CCCN5C(=O)[C@@H](NC(=O)OC)C5CCOCC5)[nH]4)ccc32)[nH]1)C(C)(C)F (single isomer, unassigned) [Compound 89] ? 11.68

And for COC(=O)N[C@H](C(=O)N1CCC[C@H]1c1ncc(-c2cc(F)c3c(c2)OC(c2ccc4c(c2)OCCC4C)n2c-3cc3cc(-c4cnc([C@@H]5CCCN5C(=O)[C@@H](NC(=O)OC)C(C)C)[nH]4)ccc32)[nH]1)C(C)C (single isomer, unassigned) [Compound 8] ? 11.68

And for COC(=O)NC(C(=O)N1CCC[C@H]1c1ncc(-c2cc(F)c3c(c2)OC(c2ccc4c(c2)OCCC4)n2c-3cc3cc(-c4cnc([C@@H]5CCCN5C(=O)[C@@H](NC(=O)OC)C5CCOCC5)[nH]4)ccc32)[nH]1)C(C)(C)F (single isomer, unassigned) [Compound 90] ? 11.77

And for COC(=O)N[C@H](C(=O)N1CCC[C@H]1c1ncc(-c2cc(F)c3c(c2)OC(c2ccc4c(c2)CCCO4)n2c-3cc3cc(-c4cnc([C@@H]5C[C@H]6C[C@H]6N5C(=O)[C@@H](NC(=O)OC)C(C)C)[nH]4)ccc32)[nH]1)C(C)C (single isomer, unassigned) [Compound 46] ? 11.59

And for COC(=O)N[C@H](C(=O)N1CCC[C@H]1c1ncc(-c2cc(F)c3c(c2)OC(c2ccc4c(c2)OC(C)CC4)n2c-3cc3cc(-c4cnc([C@@H]5CCCN5C(=O)[C@@H](NC(=O)OC)C(C)C)[nH]4)ccc32)[nH]1)C(C)C (single isomer, unassigned) [Compound 13] ? 11.64

Ref: patent US10738062B2
